# tested_system: T1, recombinant human VEGF-A 165 (human, UniProt P15692 207-395)
# T1 construct: also called huVEGF-A165; hVEGF165
# T1 sequence (P15692 other isoform, or with tags, fused parts or gaps limits assumed): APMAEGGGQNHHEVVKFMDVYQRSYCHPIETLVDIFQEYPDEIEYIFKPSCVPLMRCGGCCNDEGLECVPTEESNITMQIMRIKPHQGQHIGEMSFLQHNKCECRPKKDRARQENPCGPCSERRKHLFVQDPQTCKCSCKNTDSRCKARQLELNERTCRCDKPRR
# method: receptor competition ELISA, biotinylated hVEGF165 binding to coated hVEGF-R2-Fc
This section presents binders with their documented pIC50 values.
Give only the number. pIC50 is defined as minus log10 of concentration in molar units.

Would you please look over these solved cases?
binder: BEW-9D2-E8 (antibody, V domains shown, Rat hybridoma anti-human VEGF-A monoclonal antibody, isotype IgG2a/kappa) VH: QIQLVQSGPELKKPGESVKISCKASGYTFTNYGMYWVKLAPGQGLQYLGWINTETGKPTYADDFKGRFVFFLETSASTAYLQINNLRNEDMATYFCARPSDYYDGFWFAYWGQGTLVTVSS VL: DTVLTQSPALTVSPGERVSISCRASEWVNSYMHWYQQNPGQQPKLLIYKASNLASGVPARFSGSGSGTDFTLTLDPVEADDTATYFCQQSWNDPLTFGSGTKLEIK
property_name: pIC50
observed_value: 9.90

binder: BEW-9E7-B4 (antibody, V domains shown, Rat hybridoma anti-human VEGF-A monoclonal antibody, isotype IgG2b/kappa) VH: QIQLVQSGPELKKPGESVKISCKASGYTFTNYGMYWVKQAPGQGLQYMGWIDTETGKPTYADDFKGRFVFFLETSASTAYLQINNLRNEDMATYFCARWGYTSDYYYGWFPDWGQGTLVTVST VL: DTVLTQSPALAVSPGERVSISCRASEGVNSYMHWYQQNPGQQPKLLIYKASNLASGVPARFSGSGSGTDFTLNIHPVEADDTATYFCQQNWNVPLTFGSGTKLEIK
property_name: pIC50
observed_value: 9.68

Please turn your attention to the following entry.
Query string: Would you kindly share the measured pIC50 for BED-4G10-C8 (antibody, V domains shown, Rat hybridoma anti-human VEGF-A monoclonal antibody, isotype IgG2b/kappa) VH: QVQLQQSGTELVKPGSSVKISCKASGYTFTSNYMHWIRQQPGNGLEWIGWIYPGDGDTNYNHNFNGKATLTADKSSSTAYMQLSSLTSEDFAVYFCASSTRAIPGWFTYWGQGTLVTVSS VL: DTVLTQSPALAVSPGERVSISCWASESVSTLMHWYQQKLGQQPKLLIYGASNLESGVPARFRGSGSGTDFTLTIDPVEADDTATYFCQQSWSDPYTFGAGTKLELK ?
Result string: 9.89
